# ASSAY_COMMENT: self-splicing fitness, log relative to wild type (ln ratio); higher = more splicing; Tetrahymena group I intron in knt gene, E. coli kanamycin selection, DiMSum; sequences stand for … in CUCUCU…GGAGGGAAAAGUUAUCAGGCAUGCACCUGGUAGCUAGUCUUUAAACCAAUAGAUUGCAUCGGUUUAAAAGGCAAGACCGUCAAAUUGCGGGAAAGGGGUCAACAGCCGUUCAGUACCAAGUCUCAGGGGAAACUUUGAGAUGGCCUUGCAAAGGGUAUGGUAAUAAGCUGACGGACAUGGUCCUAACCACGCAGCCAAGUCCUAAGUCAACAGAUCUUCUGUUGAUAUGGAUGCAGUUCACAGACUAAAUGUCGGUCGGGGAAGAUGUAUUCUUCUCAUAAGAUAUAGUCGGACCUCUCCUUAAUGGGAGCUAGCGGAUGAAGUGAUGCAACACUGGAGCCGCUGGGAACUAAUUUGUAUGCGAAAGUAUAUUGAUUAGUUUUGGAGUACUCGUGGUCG;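 note: selection with 25 µg/mL kanamycin versus none on LB agar overnight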
# CONDITION_DESCRIPTION: 30 °C
I'd appreciate it if you could supply self-splicing fitness (ln) values for the items below.

I would be grateful if you could share the reported self-splicing fitness (ln) for AAUUAGCAAUAUUACGUGUA .
-2.21

Look up self-splicing fitness (ln): UUCAAGCAAUAUUACGACUG
-2.38

Endpoint output: self-splicing fitness (ln) of GAUCAGCAAUAUUACGCUGU . Value?
-3.03

State the recorded self-splicing fitness (ln) for this entry: CCCCAGCAAUAUUACGGCCU
-3.02

Give the measured self-splicing fitness (ln) of CUACAGCAAUAUUACGAGAU .
-4.21

Consider the sequence CAUUAGCAAUAUUACGUAGA and give its measured self-splicing fitness (ln).
-0.475

So what's the measured self-splicing fitness (ln) for this one? AGCGAGCAAUAUUACGAUCG
-1.79

Form field: reported self-splicing fitness (ln) of AAAGAGCAAUAUUACGCUUU
-3.18

----------
I'd be grateful if you could share measured self-splicing fitness (ln) for these entries.
# ASSAY_COMMENT: self-splicing fitness, log relative to wild type (ln ratio); higher = more splicing; Tetrahymena group I intron in knt gene, E. coli kanamycin selection, DiMSum; sequences stand for … in CUCUCU…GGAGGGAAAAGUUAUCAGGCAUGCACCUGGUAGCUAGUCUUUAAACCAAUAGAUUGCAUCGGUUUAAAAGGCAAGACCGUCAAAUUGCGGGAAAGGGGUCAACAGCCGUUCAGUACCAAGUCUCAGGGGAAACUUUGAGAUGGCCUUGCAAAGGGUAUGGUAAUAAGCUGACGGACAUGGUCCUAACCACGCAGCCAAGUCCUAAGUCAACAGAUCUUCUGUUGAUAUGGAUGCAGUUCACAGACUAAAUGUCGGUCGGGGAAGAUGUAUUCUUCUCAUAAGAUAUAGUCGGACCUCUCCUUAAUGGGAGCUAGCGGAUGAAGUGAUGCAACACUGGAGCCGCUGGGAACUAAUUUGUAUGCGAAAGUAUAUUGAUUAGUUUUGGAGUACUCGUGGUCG
# CONDITION_DESCRIPTION: 37 °C
Keep it simple and answer with nothing but the number.

Bench note: what self-splicing fitness (ln) did ACCGAGCAAUAUUACGGCCG show?
-1.09

Can you look up the measured self-splicing fitness (ln) of AAGAAGCAAUAUUACGGCUC for me?
-0.0707

If you can, please state the reported self-splicing fitness (ln) value of GUCGAGCAAUAUUACGUAGA .
-1.88

Fill in: self-splicing fitness (ln) of GCAAAGCAAUAUUACGUACU is ___
0.299

Requested read-out: self-splicing fitness (ln). Entry: ACUUAGCAAUAUUACGUAAA
-0.419

Suppose we examine the sequence CCAGAGCAAUAUUACGGAUU ; what self-splicing fitness (ln) value has been reported?
-2.38

// returns reported self-splicing fitness (ln) for input UCGGAGCAAUAUUACGUCCU
-0.83

Could you share which self-splicing fitness (ln) value was measured for GUCAAGCAAUAUUACGCUAG ?
-2

# query: self-splicing fitness (ln) of entry AAAAAGCAAUAUUACGGUGG
-1.77

Return reported self-splicing fitness (ln); argument: CUUGAGCAAUAUUACGGAAU
-2.3

Consider the sequence GUCCAGCAAUAUUACGCAAU and give its measured self-splicing fitness (ln).
0.419

So what's the measured self-splicing fitness (ln) for this one? AAAAAGCAAUAUUACGAUUC
-0.42

Which measured self-splicing fitness (ln) value corresponds to GCAUAGCAAUAUUACGGGAG ?
-0.949

Name the reported self-splicing fitness (ln) value associated with the sequence GCGGAGCAAUAUUACGUGGU
-3.01

Fill in the blank: the reported self-splicing fitness (ln) of CUCAAGCAAUAUUACGCGGC is ____.
-3.15

Field request: self-splicing fitness (ln) | item: GGGUAGCAAUAUUACGGCCA
-0.498
